Molecular target: GlcNAc(b1-3)[GlcNAc(b1-6)]GalNAc
Assay: glycan array binding signal (z-score within array); higher = stronger binding
Settings: glycan notation: IUPAC condensed, linker removed
About 410 targets per protein were measured; listed, in parts, are those with the strongest signals and a random draw of the rest.
measuredAttribute: glycan array binding signal (z-score)

>>> endpointvalue("EfCBM33A (Enterococcus faecalis), Q838S1 (protein) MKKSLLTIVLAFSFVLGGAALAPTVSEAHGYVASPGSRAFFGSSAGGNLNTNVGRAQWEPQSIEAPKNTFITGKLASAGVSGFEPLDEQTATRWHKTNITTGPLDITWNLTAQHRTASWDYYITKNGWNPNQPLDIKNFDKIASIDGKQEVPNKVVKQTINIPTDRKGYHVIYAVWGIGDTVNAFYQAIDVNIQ")
-0.941
